SYSTEM_UNDER_TEST: UniProt:P14780
TEST_DETAILS: Inhibitory activity against matrix metalloprotease-9
Cut-off 30 µM on Ki: below means satisfied, at or above means not satisfied.

Solved entries (count: 5):
• C=C[C@@H]1OC(CCCCCCC)=N[C@H]1CO = not satisfied
• C=C[C@@H]1OC(c2ccc(Oc3ccccc3)cc2)=N[C@H]1CO = not satisfied
• C=C[C@@H]1OC(/C=C/c2ccccc2)=N[C@H]1S = not satisfied
• C=C[C@@H]1OC(c2ccc(-c3ccccc3)cc2)=N[C@H]1SC(C)=O = not satisfied
• C=C[C@@H]1OC(c2ccc(Cl)cc2)=N[C@H]1CO = not satisfied

Asked: Does C=C[C@@H]1OC(c2ccc(Cl)cc2)=N[C@H]1Sc1ccccc1 have Ki strictly under 30 µM?
Given back: not satisfied

* * *

Entries and their Ki values follow.
SYSTEM_UNDER_TEST: UniProtKB P03956
TEST_DETAILS: Inhibitory activity against matrix metalloprotease-1

The cases that follow already have their Ki on record.
• C=C[C@@H]1OC(c2ccc(Cl)cc2)=N[C@H]1SC(C)=O = > 100 µM
• C=C[C@@H]1OC(/C=C/c2ccccc2)=N[C@H]1S = 92 µM
• C=C[C@@H]1OC(/C=C/c2ccccc2)=N[C@H]1Sc1ccccc1 = > 100 µM
• C=C[C@@H]1OC(/C=C/c2ccc(Br)cc2)=N[C@H]1CO = > 300 µM
• C=C[C@@H]1OC(c2ccc(Br)cc2)=N[C@H]1S = > 200 µM

Sure, the documented Ki for C=C[C@@H]1OC(c2ccc(Br)cc2)=N[C@H]1SC(C)=O is > 200 µM

Sure, the documented Ki for C=C[C@@H]1OC(Cc2ccccc2)=N[C@H]1CO is > 500 µM

Sure, the documented Ki for C=C[C@@H]1OC(c2ccc(C)cc2)=N[C@H]1Sc1ccccc1 is 64 µM

Sure, the documented Ki for C=C[C@@H]1OC(c2ccc(C)cc2)=N[C@H]1S is > 100 µM

Sure, the documented Ki for C=C[C@@H]1OC(c2ccc(Cl)cc2)=N[C@H]1CO is > 300 µM

* * *

Entries and their pKi values follow.
SYSTEM_UNDER_TEST: 72 kDa type IV collagenase (Homo sapiens, UniProt P08253)
Sequence (P08253 whole entry): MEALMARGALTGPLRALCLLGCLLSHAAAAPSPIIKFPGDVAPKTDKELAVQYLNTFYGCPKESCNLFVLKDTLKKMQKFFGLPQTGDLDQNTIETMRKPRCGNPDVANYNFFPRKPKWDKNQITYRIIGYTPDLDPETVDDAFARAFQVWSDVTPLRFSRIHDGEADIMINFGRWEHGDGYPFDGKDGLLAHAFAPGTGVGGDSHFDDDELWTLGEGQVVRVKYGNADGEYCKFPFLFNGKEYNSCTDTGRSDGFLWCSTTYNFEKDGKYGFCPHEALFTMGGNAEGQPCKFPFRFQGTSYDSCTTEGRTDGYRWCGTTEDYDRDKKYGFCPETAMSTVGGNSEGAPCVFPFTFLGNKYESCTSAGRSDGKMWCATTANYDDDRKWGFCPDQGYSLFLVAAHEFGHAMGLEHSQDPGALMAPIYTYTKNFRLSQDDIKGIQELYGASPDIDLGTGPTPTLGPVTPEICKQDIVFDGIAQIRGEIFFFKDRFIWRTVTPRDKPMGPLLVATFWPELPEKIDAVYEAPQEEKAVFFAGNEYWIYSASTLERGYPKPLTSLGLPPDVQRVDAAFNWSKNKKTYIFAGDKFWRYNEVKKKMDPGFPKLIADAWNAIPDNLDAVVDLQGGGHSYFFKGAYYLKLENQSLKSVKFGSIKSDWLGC
TEST_DETAILS: Inhibitory activity against matrix metalloprotease-2
By convention, pKi is the negative base-10 log of a molar concentration.

• C=C[C@@H]1OC(/C=C\C=C\c2ccccc2)=N[C@H]1CO = 3.82

Alright, here's another molecule for you.
Sure, the documented pKi for C=C[C@@H]1OC(c2ccc(C)cc2)=N[C@H]1S is 4.06

* * *

Entries and their pKi values follow.
SYSTEM_UNDER_TEST: Macrophage metalloelastase (Homo sapiens)
Sequence (P39900 whole entry): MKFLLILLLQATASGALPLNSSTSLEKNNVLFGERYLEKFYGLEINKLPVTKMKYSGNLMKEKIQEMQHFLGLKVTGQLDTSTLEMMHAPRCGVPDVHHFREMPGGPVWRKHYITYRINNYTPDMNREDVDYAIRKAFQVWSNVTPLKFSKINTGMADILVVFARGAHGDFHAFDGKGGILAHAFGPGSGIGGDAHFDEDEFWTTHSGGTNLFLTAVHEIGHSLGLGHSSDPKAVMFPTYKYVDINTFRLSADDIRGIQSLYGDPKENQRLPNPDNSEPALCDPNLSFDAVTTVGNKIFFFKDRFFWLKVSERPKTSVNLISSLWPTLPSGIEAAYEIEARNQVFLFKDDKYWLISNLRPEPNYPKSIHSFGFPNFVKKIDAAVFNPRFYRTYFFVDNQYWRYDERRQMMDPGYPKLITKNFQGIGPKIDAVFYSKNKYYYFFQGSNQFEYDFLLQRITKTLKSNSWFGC
TEST_DETAILS: Inhibitory activity against matrix metalloprotease-12
pKi: −log10 of the molar value.

The cases that follow already have their pKi on record.
* C=C[C@@H]1OC(c2ccc([N+](=O)[O-])cc2)=N[C@H]1CO | < 4.00
* C=C[C@@H]1OC(c2ccccc2)=N[C@H]1CO | < 2.70
* C=C[C@@H]1OC(c2ccc(C)cc2)=N[C@H]1S | < 3.52

Sure, the documented pKi for C=C[C@@H]1OC(c2ccc(Br)cc2)=N[C@H]1CO is < 3.52

Sure, the documented pKi for C=C[C@@H]1OC(/C=C\C=C\c2ccccc2)=N[C@H]1CO is 4.31

Sure, the documented pKi for C=C[C@@H]1OC(/C=C/c2ccccc2)=N[C@H]1SC(C)=O is < 3.52

* * *

SYSTEM_UNDER_TEST: UniProt:P08253
TEST_DETAILS: Inhibitory activity against matrix metalloprotease-2; NA denotes no activity upto solubility limit
PROPERTY: Ki

The cases that follow already have their Ki on record.
• C=C[C@@H]1OC(c2ccc(C)cc2)=N[C@H]1CO = No Activity
• C=C[C@@H]1OC(/C=C/c2ccc(-c3ccccc3)cc2)=N[C@H]1CO = No Activity
• C=C[C@@H]1OC(c2ccc(F)cc2)=N[C@H]1CO = No Activity
• C=C[C@@H]1OC(Cc2ccccc2)=N[C@H]1CO = No Activity
• C=C[C@@H]1OC(c2ccc(Cl)cc2)=N[C@H]1S = No Activity

Sure, the documented Ki for C=CC1=N[C@@H](CO)[C@H](C=C)O1 is No Activity

Sure, the documented Ki for C=C[C@@H]1OC(c2ccc(Br)cc2)=N[C@H]1SC(C)=O is No Activity

Sure, the documented Ki for C=C[C@@H]1OC(c2ccc(-c3ccccc3)cc2)=N[C@H]1Sc1ccccc1 is No Activity

Sure, the documented Ki for C=C[C@@H]1OC(c2ccc(OC)cc2)=N[C@H]1CO is No Activity

Sure, the documented Ki for C=C[C@@H]1OC(c2ccc(C)cc2)=N[C@H]1Sc1ccccc1 is No Activity

Sure, the documented Ki for C=C[C@@H]1OC(/C=C/c2ccccc2)=N[C@H]1Sc1ccccc1 is No Activity

Sure, the documented Ki for C=C[C@@H]1OC(c2ccc(-c3ccccc3)cc2)=N[C@H]1SC(C)=O is No Activity

Sure, the documented Ki for C=C[C@@H]1OC(c2ccc(C)cc2)=N[C@H]1SC(C)=O is No Activity

* * *

SYSTEM_UNDER_TEST: Matrix metalloproteinase-9 (Homo sapiens)
TEST_DETAILS: Inhibitory activity against matrix metalloprotease-9
PROPERTY: log10 Ki (log10 of the value in µM)
Recorded Ki (log10, µM)

The cases that follow already have their log10 Ki on record.
• C=C[C@@H]1OC(c2ccc(Br)cc2)=N[C@H]1SC(C)=O = 1.94
• C=C[C@@H]1OC(/C=C/c2ccccc2)=N[C@H]1CO = 1.60
• C=C[C@@H]1OC(c2ccc(Br)cc2)=N[C@H]1CO = 0.95
• C=C[C@@H]1OC(C#Cc2ccccc2)=N[C@H]1CO = 1.81
• C=C[C@@H]1OC(/C=C\C=C\c2ccccc2)=N[C@H]1CO = 0.90

Sure, the documented log10 Ki for C=C[C@@H]1OC(c2ccc(Br)cc2)=N[C@H]1Sc1ccccc1 is 1.97

Sure, the documented log10 Ki for C=C[C@@H]1OC(/C=C/c2ccc(Br)cc2)=N[C@H]1CO is 1.34

Sure, the documented log10 Ki for C=C[C@@H]1OC(c2ccc(-c3ccccc3)cc2)=N[C@H]1CO is 1.38

Sure, the documented log10 Ki for C=C[C@@H]1OC(c2ccc(C)cc2)=N[C@H]1CO is 1.83

Sure, the documented log10 Ki for C=C[C@@H]1OC(Cc2ccccc2)=N[C@H]1CO is 0.78

* * *

Entries and their Ki values follow.
SYSTEM_UNDER_TEST: Interstitial collagenase (Homo sapiens, UniProt P03956)
Sequence (P03956 whole entry): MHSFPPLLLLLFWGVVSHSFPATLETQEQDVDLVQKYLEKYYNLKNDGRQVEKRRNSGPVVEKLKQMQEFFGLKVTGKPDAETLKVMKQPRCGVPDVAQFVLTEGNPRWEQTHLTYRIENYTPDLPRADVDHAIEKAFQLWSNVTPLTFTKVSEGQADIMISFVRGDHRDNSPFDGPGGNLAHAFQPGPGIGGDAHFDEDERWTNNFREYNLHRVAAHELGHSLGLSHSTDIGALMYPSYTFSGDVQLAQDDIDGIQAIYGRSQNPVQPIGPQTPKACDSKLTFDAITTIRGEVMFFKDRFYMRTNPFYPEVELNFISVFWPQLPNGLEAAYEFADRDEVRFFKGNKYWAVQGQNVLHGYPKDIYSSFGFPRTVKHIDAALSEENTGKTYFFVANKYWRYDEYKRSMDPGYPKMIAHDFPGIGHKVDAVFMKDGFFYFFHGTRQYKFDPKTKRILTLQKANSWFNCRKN
TEST_DETAILS: Inhibitory activity against matrix metalloprotease-1

• C=C[C@@H]1OC(c2ccc(Cl)cc2)=N[C@H]1S = > 100 µM
• C=C[C@@H]1OC(/C=C\C=C\c2ccccc2)=N[C@H]1CO = 32 µM
• C=C[C@@H]1OC(C#Cc2ccccc2)=N[C@H]1CO = 46 µM

Sure, the documented Ki for C=C[C@@H]1OC(c2ccc(-c3ccccc3)cc2)=N[C@H]1SC(C)=O is > 400 µM

* * *

SYSTEM_UNDER_TEST: UniProt P08253
TEST_DETAILS: Inhibitory activity against matrix metalloprotease-2; NA denotes no activity upto solubility limit
PROPERTY: Ki

The cases that follow already have their Ki on record.
• C=C[C@@H]1OC(C#Cc2ccccc2)=N[C@H]1CO = No Activity
• C=C[C@@H]1OC(/C=C/c2ccc(Br)cc2)=N[C@H]1CO = No Activity
• C=C[C@@H]1OC(c2ccc(Cl)cc2)=N[C@H]1SC(C)=O = No Activity
• C=C[C@@H]1OC(CCc2ccccc2)=N[C@H]1CO = No Activity

Sure, the documented Ki for C=C[C@@H]1OC(C2CCCCC2)=N[C@H]1CO is No Activity

Sure, the documented Ki for C=C[C@@H]1OC(/C=C/c2ccccc2)=N[C@H]1S is No Activity

* * *

SYSTEM_UNDER_TEST: Matrix metalloproteinase-9 (Homo sapiens, UniProt P14780)
Sequence (P14780 whole entry): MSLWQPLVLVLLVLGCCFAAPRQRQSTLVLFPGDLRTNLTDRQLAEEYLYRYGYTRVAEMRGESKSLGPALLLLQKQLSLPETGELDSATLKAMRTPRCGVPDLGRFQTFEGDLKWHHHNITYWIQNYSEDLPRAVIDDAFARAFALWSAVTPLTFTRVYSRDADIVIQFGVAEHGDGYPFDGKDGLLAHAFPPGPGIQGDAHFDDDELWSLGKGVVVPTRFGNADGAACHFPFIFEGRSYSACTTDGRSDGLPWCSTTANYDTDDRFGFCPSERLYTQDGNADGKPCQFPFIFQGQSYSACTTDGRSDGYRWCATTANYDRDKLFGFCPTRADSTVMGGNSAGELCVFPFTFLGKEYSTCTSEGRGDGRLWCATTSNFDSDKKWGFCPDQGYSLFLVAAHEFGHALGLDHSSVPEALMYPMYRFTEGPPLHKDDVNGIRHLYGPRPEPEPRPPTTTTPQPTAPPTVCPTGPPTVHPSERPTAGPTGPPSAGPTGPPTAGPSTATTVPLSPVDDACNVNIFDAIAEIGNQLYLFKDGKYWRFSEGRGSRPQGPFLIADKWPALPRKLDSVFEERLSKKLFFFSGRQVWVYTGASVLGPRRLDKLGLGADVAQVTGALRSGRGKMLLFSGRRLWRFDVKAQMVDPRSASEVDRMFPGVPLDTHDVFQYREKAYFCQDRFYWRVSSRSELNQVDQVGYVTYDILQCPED
TEST_DETAILS: Inhibitory activity against matrix metalloprotease-9
pKi: −log10 of the molar value.
Entries and their pKi values follow.

- C=C[C@@H]1OC(c2ccc(Cl)cc2)=N[C@H]1S: < 4.00
- C=C[C@@H]1OC(c2ccccc2)=N[C@H]1CO: < 2.40
- C=C[C@@H]1OC(c2ccc(Br)cc2)=N[C@H]1S: < 4.00

Sure, the documented pKi for C=C[C@@H]1OC(CCCCC)=N[C@H]1CO is < 2.70

Sure, the documented pKi for C=C[C@@H]1OC(c2ccc(C)cc2)=N[C@H]1S is < 4.00

Sure, the documented pKi for C=C[C@@H]1OC(c2ccc(-c3ccccc3)cc2)=N[C@H]1Sc1ccccc1 is < 4.00

Sure, the documented pKi for C=C[C@@H]1OC(c2ccc(C)cc2)=N[C@H]1SC(C)=O is < 4.00

Sure, the documented pKi for C=C[C@@H]1OC(/C=C/c2ccccc2)=N[C@H]1Sc1ccccc1 is < 4.00

Sure, the documented pKi for C=C[C@@H]1OC(/C=C/c2ccccc2)=N[C@H]1SC(C)=O is < 4.00
